- System: ATP;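 also: ATP exposure 15 min at 22 °C before imaging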
- Protocol description: switch fluorescence ratio, 500 uM ATP over buffer (Cy3 cluster intensity, sum of 5 cycles each) (fold (ratio)); higher = stronger signal-on switching upon ATP binding; sequences stand for … in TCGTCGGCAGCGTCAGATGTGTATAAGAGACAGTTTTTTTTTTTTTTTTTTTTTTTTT…TC
- Test parameters: aptamer strand: ATP DNA aptamer (quencher-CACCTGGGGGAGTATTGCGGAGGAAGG + anchor), 100 nM annealed; ATP concentration: 500 uM
Readout name: switch fluorescence ratio

> print(dat)
   construct.sequence  experimental.value
1          CCGGCTGGGT               0.958
2          CAGCGCATTA                2.01
3          GCATCTCAGC               0.991
4          GAGGGGGTGC                1.04
5          ATGGTTTGGT               0.997
6          ATTTTATTTT                1.01
7          ACTGAGTTTG                   1

----------
- System: ATP;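 also: ATP exposure 15 min at 22 °C before imaging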
- Protocol description: switch fluorescence ratio, 500 uM ATP over buffer (Cy3 cluster intensity, sum of 5 cycles each) (fold (ratio)); higher = stronger signal-on switching upon ATP binding; sequences stand for … in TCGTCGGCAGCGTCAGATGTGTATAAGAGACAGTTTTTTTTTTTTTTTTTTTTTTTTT…TC
- Test parameters: aptamer strand: ATP DNA aptamer (quencher-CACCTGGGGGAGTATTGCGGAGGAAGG + anchor), 100 nM annealed; ATP concentration: 500 uM
Readout name: switch fluorescence ratio

> print(dat)
    construct.sequence  experimental.value
 1          TTTTCGTGTT                   1
 2          AGTACATGAT                1.02
 3          AAATAATTCG               0.997
 4          ATTTGCTTTA                1.02
 5          TTAGGGACGT                1.01
 6          TTTAGATAAA                1.02
 7          GGGAGTGATG               0.986
 8          TTTGTTTATC                1.02
 9          TAGAGCTAAT                1.09
10          GTCAAATATG               0.968
11          AAGGGTCAGC               0.992
12          GAGGCAATTT                2.87
13          TGACGGGCGG                   1
14          TATTATCGGA               0.996
15          CGTACGAATG               0.977
16          GTGGGTTCGG                   1
17          GGTACAGGGA                1.02
18          ACGTGGAAGC                1.04
19          AAAGCCCGCG               0.961
20          ACATTTCTCA                1.04
21          GGAAGGAGAT                   1
22          TAGTTCTTAA               0.984
23          ACTAGCTTGT                1.04
24          AGTGCGGGTT                1.02
25          GGGTCGATGT                1.02
26          GGGGCATTTA               0.964
27          TGATTTTGAG                1.01
28          ATGCATTATG                1.02
29          TGAGGTTTGA               0.986
30          TCGGGAAAAA               0.991
31          ACTCGCAGGG                1.07
32          TTTAAATTAG               0.969
33          CAGTATCGGA               0.981
34          TTCGGGGGAA               0.993
35          GTATGACAGT                1.02
36          GGGGGATTTG               0.998
37          ATGCTGCGGG                1.06
38          GGCTTTTTGG                0.99

----------
- Test system: ATP;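 also: ATP exposure 15 min at 22 °C before imaging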
- Protocol description: switch fluorescence ratio, 500 uM ATP over buffer (Cy3 cluster intensity, sum of 5 cycles each) (fold (ratio)); higher = stronger signal-on switching upon ATP binding; sequences stand for … in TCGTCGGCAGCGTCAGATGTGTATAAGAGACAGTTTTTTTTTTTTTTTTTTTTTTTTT…TC
- Test parameters: aptamer strand: ATP DNA aptamer (quencher-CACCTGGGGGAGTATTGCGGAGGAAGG + anchor), 100 nM annealed; ATP concentration: 500 uM
Overview of reported switch fluorescence ratio across a group of sequences:
Readout name: switch fluorescence ratio

> print(dat)
    construct.sequence  experimental.value
 1          TGCGCTTCTA               0.981
 2          TGAGTATAGT                1.01
 3          CCCATGTATC                1.09
 4          ATCATAATGT               0.983
 5          AGAAATCTTG               0.983
 6          CGGACTAGGG                1.04
 7          CTGTATTGGG               0.977
 8          TTAGTAATGT                1.06
 9          CGTCGGGGGG                1.01
10          TCGGGGCGTG                   1
11          CGTGGTGGGT               0.963
12          TTTTTGCTTT                1.06
13          TGATCGGGCG                1.04
14          GGATAGTCGG                   1

----------
Overview of reported switch fluorescence ratio across a group of sequences:
- Test system: ATP;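 also: ATP exposure 15 min at 22 °C before imaging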
- Protocol description: switch fluorescence ratio, 500 uM ATP over buffer (Cy3 cluster intensity, sum of 5 cycles each) (fold (ratio)); higher = stronger signal-on switching upon ATP binding; sequences stand for … in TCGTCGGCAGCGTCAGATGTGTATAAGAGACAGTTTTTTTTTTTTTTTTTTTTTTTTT…TC
- Test parameters: aptamer strand: ATP DNA aptamer (quencher-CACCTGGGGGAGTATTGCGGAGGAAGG + anchor), 100 nM annealed; ATP concentration: 500 uM
Readout name: switch fluorescence ratio

> print(dat)
    construct.sequence  experimental.value
 1          CTGGAGGGGG                1.01
 2          GTGATAGTAA                1.01
 3          AGCTTTAGTT                1.01
 4          AATAGGTCAT                1.02
 5          ATAAGCAGGA                1.02
 6          TTACGGTGTC                1.02
 7          TACATTGGGC                   1
 8          ATATTGAGCT               0.976
 9          TTTTAAGTCT                1.02
10          AAAATGGTTT               0.994
11          AGGTCGGGAT                   1
12          GGGATATGGG               0.995
13          CCAGGGTCGC               0.997
14          TGCGTATGAA                0.98
15          AATGGTGGGT                1.01
16          AAGAAGTAGG                   1
17          ATGGGTCCTG               0.979
18          GCGGGAGATA                1.01
19          GTTTGTATTT                   1
20          GAGGATTTTG                   1
21          GTGTGAGCGG                0.99
22          TAATCAGTAG                1.02
23          CGGGGGTCTA                1.01
24          TTAGGATGTT                1.01
